Assay: Combined toxicity of chlorpyrifos and butachlor to Japanese medaka larvae
Details: in vivo, other: immersion in test solution (waterborne exposure), Japanese medaka larvae, chlorpyrifos:butachlor ratio 1:1, 72 h, read-out: LC50 (95%) CI of the component in the mixture

cpd_smiles | LC50 at 72 h / µg/mL
CCOP(=S)(OCC)Oc1nc(Cl)c(Cl)cc1Cl | 0.93
CCCCOCN(C(=O)CCl)c1c(CC)cccc1CC | 0.93

###

The following compounds are listed with their measured LC50 at 24 h values.
Experiment: Single toxicity of chlorpyrifos and butachlor to zebrafish embryos
Assay type: in vivo
Conditions: in vivo, other: immersion in test solution (waterborne exposure), exposure time 24 h, read-out: LC50 (95% CI)
From the text: […]
measure: LC50 at 24 h (µg/mL)

compound | unit_tag | reported_result
CCCCOCN(C(=O)CCl)c1c(CC)cccc1CC [Butachlor, butachlor] | µg/mL | 32.8
CCOP(=S)(OCC)Oc1nc(Cl)c(Cl)cc1Cl [Chlorpyrifos, chlorpyrifos] | µg/mL | 170

###

Assay: Combined toxicity of chlorpyrifos and butachlor to Japanese medaka larvae
Conditions: in vivo, Japanese medaka larvae, chlorpyrifos:butachlor ratio 4:1, 24 h, read-out: LC50 (95% CI) of the component in the mixture
# maps each entry to its LC50 at 24 h

cpd_smiles | LC50 at 24 h / µg/mL
CCCCOCN(C(=O)CCl)c1c(CC)cccc1CC | 0.2
CCOP(=S)(OCC)Oc1nc(Cl)c(Cl)cc1Cl | 0.8

###

Assay: Combined toxicity of chlorpyrifos and butachlor to Japanese medaka larvae
Settings: in vivo, other: immersion in test solution (waterborne exposure), Japanese medaka larvae, chlorpyrifos:butachlor ratio 1:1, 24 h, read-out: LC50 (95%) CI of the component in the mixture
Description: F. Combined toxicity test: The toxicity test is performed on zebrafish larvae and Japanese medaka larvae, the test procedure is as follows: b. […]
measure: LC50 at 24 h (µg/mL)

cpd_smiles | measure | reported_result
CCCCOCN(C(=O)CCl)c1c(CC)cccc1CC | LC50 at 24 h | 1.53
CCOP(=S)(OCC)Oc1nc(Cl)c(Cl)cc1Cl | LC50 at 24 h | 1.53

###

Assay: Combined toxicity of chlorpyrifos and butachlor to Japanese medaka larvae
Conditions: in vivo, other: immersion in test solution (waterborne exposure), Japanese medaka larvae, chlorpyrifos:butachlor ratio 1:1, 48 h, read-out: LC50 (95%) CI of the component in the mixture

cpd_smiles | unit_tag | LC50 at 48 h
CCOP(=S)(OCC)Oc1nc(Cl)c(Cl)cc1Cl | µg/mL | 1.22
CCCCOCN(C(=O)CCl)c1c(CC)cccc1CC | µg/mL | 1.22

###

Catalogue of LC50 at 72 h values
Assay: Combined toxicity of chlorpyrifos and butachlor to Japanese medaka larvae
Conditions: in vivo, other: immersion in test solution (waterborne exposure), chlorpyrifos:butachlor ratio 2:3, 72 h, read-out: LC50 (95% CI) of the component in the mixture
Description: F. Combined toxicity test: The toxicity test is performed on zebrafish larvae and Japanese medaka larvae, the test procedure is as follows: b. […]
measure: LC50 at 72 h

cpd_smiles | reported_result
CCOP(=S)(OCC)Oc1nc(Cl)c(Cl)cc1Cl | 0.28 µg/mL
CCCCOCN(C(=O)CCl)c1c(CC)cccc1CC | 0.43 µg/mL

###

Assay: Combined toxicity of chlorpyrifos and butachlor to Japanese medaka larvae
Details: in vivo, other: immersion in test solution (waterborne exposure), chlorpyrifos:butachlor ratio 3:2, 24 h, read-out: LC50 (95% CI) of the component in the mixture
measure: LC50 at 24 h (µg/mL)

cpd_smiles | unit_tag | reported_result
CCCCOCN(C(=O)CCl)c1c(CC)cccc1CC | µg/mL | 1.48
CCOP(=S)(OCC)Oc1nc(Cl)c(Cl)cc1Cl | µg/mL | 2.23

###

Attribute: LC50 at 48 h
Test: Single toxicity of chlorpyrifos and butachlor to Japanese medaka larvae
Settings: in vivo, other: immersion in test solution (waterborne exposure), exposure time 48 h, read-out: LC50 (95% CI)
measure: LC50 at 48 h (µg/mL)

molecule | measure | unit_tag | reported_result
CCOP(=S)(OCC)Oc1nc(Cl)c(Cl)cc1Cl [Chlorpyrifos, chlorpyrifos] | LC50 at 48 h | µg/mL | 0.4
CCCCOCN(C(=O)CCl)c1c(CC)cccc1CC [Butachlor, butachlor] | LC50 at 48 h | µg/mL | 0.72

###

Assay: Combined toxicity of chlorpyrifos and butachlor to Japanese medaka larvae
Conditions: in vivo, other: immersion in test solution (waterborne exposure), chlorpyrifos:butachlor ratio 1:4, 96 h, read-out: LC50 (95% CI) of the component in the mixture
measure: LC50 at 96 h (µg/mL)

compound | unit_tag | reported_result
CCCCOCN(C(=O)CCl)c1c(CC)cccc1CC [Butachlor, butachlor] | µg/mL | 0.88
CCOP(=S)(OCC)Oc1nc(Cl)c(Cl)cc1Cl [Chlorpyrifos, chlorpyrifos] | µg/mL | 0.22

###

Assay: Combined toxicity of chlorpyrifos and butachlor to Japanese medaka larvae
Details: in vivo, other: immersion in test solution (waterborne exposure), Japanese medaka larvae, chlorpyrifos:butachlor ratio 4:1, 72 h, read-out: LC50 (95% CI) of the component in the mixture
The following molecules are shown together with reported LC50 at 72 h values.

molecule | LC50 at 72 h [mg/L]
CCOP(=S)(OCC)Oc1nc(Cl)c(Cl)cc1Cl [Chlorpyrifos, chlorpyrifos] | 0.43
CCCCOCN(C(=O)CCl)c1c(CC)cccc1CC [Butachlor, butachlor] | 0.11

###

Experiment: Combined toxicity of chlorpyrifos and butachlor to Japanese medaka larvae
Settings: in vivo, other: immersion in test solution (waterborne exposure), chlorpyrifos:butachlor ratio 2:3, 96 h, read-out: LC50 (95% CI) of the component in the mixture

compound | unit_tag | LC50 at 96 h
CCCCOCN(C(=O)CCl)c1c(CC)cccc1CC [Butachlor, butachlor] | µg/mL | 0.35
CCOP(=S)(OCC)Oc1nc(Cl)c(Cl)cc1Cl [Chlorpyrifos, chlorpyrifos] | µg/mL | 0.23

###

Experiment: Combined toxicity of chlorpyrifos and butachlor to zebrafish larvae
Conditions: in vivo, equitoxic ratio, 96 h, read-out: LC50 (95% CI) of the component in the mixture
Protocol: F. Combined toxicity test: The toxicity test is performed on zebrafish larvae and Japanese medaka larvae, the test procedure is as follows: a. Zebrafish larvae: The LC50 value of zebrafish larvae with a single pesticide for 96 h is a toxic unit, and 5-7 different concentrations with a geometrical ratio, test method and calculation of LC50 value of each exposure time are the same as 1.4.2; […]

cpd_smiles | unit_tag | LC50 at 96 h
CCCCOCN(C(=O)CCl)c1c(CC)cccc1CC | µg/mL | 0.26
CCOP(=S)(OCC)Oc1nc(Cl)c(Cl)cc1Cl | µg/mL | 0.16

###

Test: Combined toxicity of chlorpyrifos and butachlor to Japanese medaka larvae
Conditions: in vivo, other: immersion in test solution (waterborne exposure), chlorpyrifos:butachlor ratio 2:3, 24 h, read-out: LC50 (95% CI) of the component in the mixture
// values below are reported LC50 at 24 h

compound | LC50 at 24 h, mg/L
CCCCOCN(C(=O)CCl)c1c(CC)cccc1CC [Butachlor, butachlor] | 2.29
CCOP(=S)(OCC)Oc1nc(Cl)c(Cl)cc1Cl [Chlorpyrifos, chlorpyrifos] | 1.52

###

Entries and their LC50 at 48 h
Assay: Combined toxicity of chlorpyrifos and butachlor to Japanese medaka larvae
Details: in vivo, other: immersion in test solution (waterborne exposure), chlorpyrifos:butachlor ratio 3:2, 48 h, read-out: LC50 (95% CI) of the component in the mixture
measure: LC50 at 48 h (µg/mL)

cpd_smiles | unit_tag | reported_result
CCCCOCN(C(=O)CCl)c1c(CC)cccc1CC | µg/mL | 1.29
CCOP(=S)(OCC)Oc1nc(Cl)c(Cl)cc1Cl | µg/mL | 1.94

###

Test: Combined toxicity of chlorpyrifos and butachlor to zebrafish larvae
Conditions: in vivo, equivalent concentration (1:1), 96 h, read-out: LC50 (95% CI) of the component in the mixture
measure: LC50 at 96 h (mg/L)

cpd_smiles | unit_tag | reported_result
CCOP(=S)(OCC)Oc1nc(Cl)c(Cl)cc1Cl | mg/L | 0.11
CCCCOCN(C(=O)CCl)c1c(CC)cccc1CC | mg/L | 0.11

###

Assay: Single toxicity of chlorpyrifos and butachlor to Japanese medaka larvae
Details: in vivo, other: immersion in test solution (waterborne exposure), exposure time 96 h, read-out: LC50 (95% CI)
Below, each entry is listed with its recorded LC50 at 96 h.

cpd_smiles | unit_tag | LC50 at 96 h
CCCCOCN(C(=O)CCl)c1c(CC)cccc1CC | µg/mL | 0.43
CCOP(=S)(OCC)Oc1nc(Cl)c(Cl)cc1Cl | µg/mL | 0.24

###

Assay: Combined toxicity of chlorpyrifos and butachlor to Japanese medaka larvae
Conditions: in vivo, other: immersion in test solution (waterborne exposure), chlorpyrifos:butachlor ratio 1:4, 72 h, read-out: LC50 (95% CI) of the component in the mixture

cpd_smiles | LC50 at 72 h / µg/mL
CCOP(=S)(OCC)Oc1nc(Cl)c(Cl)cc1Cl | 0.28
CCCCOCN(C(=O)CCl)c1c(CC)cccc1CC | 1.14
